- assay_system: VEGFR-2 (Homo sapiens, UniProt P35968)
- Construct: endogenous in cells; host or cells: primary HUVEC
- Sequence (P35968 20-1356): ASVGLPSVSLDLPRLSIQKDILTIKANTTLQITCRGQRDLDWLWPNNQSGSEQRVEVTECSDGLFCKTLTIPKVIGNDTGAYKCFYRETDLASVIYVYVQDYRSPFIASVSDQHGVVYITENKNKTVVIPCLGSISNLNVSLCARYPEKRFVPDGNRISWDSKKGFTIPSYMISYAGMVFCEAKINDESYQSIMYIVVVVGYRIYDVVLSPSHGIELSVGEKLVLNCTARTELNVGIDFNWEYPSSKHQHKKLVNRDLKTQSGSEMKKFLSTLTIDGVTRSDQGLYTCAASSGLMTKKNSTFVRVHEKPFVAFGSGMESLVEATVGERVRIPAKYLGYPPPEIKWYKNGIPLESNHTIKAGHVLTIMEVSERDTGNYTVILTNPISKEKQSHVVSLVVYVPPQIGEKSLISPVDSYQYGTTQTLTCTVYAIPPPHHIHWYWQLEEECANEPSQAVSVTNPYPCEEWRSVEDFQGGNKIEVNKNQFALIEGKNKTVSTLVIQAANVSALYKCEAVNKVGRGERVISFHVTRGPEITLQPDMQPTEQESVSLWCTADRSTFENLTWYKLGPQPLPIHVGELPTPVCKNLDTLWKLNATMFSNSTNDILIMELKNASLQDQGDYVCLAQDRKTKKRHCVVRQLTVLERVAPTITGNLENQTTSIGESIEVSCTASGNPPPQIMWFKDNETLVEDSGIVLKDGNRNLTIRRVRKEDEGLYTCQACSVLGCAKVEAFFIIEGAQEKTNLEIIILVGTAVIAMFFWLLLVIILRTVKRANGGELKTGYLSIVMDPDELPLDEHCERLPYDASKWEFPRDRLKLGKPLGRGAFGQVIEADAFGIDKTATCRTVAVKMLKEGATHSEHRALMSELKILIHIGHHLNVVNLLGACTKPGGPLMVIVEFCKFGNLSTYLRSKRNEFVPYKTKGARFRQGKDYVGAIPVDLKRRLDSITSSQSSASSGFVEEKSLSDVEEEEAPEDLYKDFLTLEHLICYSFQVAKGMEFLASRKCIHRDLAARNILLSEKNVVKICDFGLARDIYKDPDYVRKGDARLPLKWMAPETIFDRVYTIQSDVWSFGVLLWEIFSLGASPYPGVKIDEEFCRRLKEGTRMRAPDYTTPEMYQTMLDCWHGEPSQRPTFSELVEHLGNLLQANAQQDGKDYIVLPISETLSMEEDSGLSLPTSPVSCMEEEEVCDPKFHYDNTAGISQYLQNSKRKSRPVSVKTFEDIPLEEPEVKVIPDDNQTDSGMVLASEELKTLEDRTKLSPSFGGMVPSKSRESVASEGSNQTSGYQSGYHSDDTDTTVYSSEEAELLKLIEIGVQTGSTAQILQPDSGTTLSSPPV
- test_protocol: VEGF-165 induced phosphorylation of VEGF-Receptor on HUVEC
- Format: cell-based
- conditions: HUVEC preincubated 60 min, VEGF165 25 ng/mL 2 min; read-out: VEGFR-Phosphorylation inhibition IC50
assay_endpoint: pIC50
// scale note: pIC50 = -log10(conc_M); give the bare number

Quick one: pIC50 for COC(=O)c1cc(NC(=O)c2cc(O)c(C(=O)Nc3ccc(O)c(C(=O)OC)c3)cc2O)ccc1O [Ic-007a-E2] ?
6.60

Quick one: pIC50 for O=C(O)c1cc(NC(=O)c2cc(O)c(C(=O)O)cc2O)cc(NC(=O)c2cc(O)c(C(=O)O)cc2O)c1 [Ib-010a] ?
5.80

Quick one: pIC50 for O=C(O)c1cc(O)ccc1NC(=O)c1cc(O)cc(C(=O)O)c1O [IIa-006a] ?
5.54

Quick one: pIC50 for O=C(O)c1cc(O)c(C(=O)Nc2ccccc2S(=O)(=O)O)cc1O [Ia-001c] ?
5.48

Quick one: pIC50 for CCOC(=O)c1cc(O)c(C(=O)Nc2ccccc2-c2nnn[nH]2)cc1O [Ia-001a-Tz-E1] ?
5.42

Quick one: pIC50 for O=C(O)c1cc(O)c(C(=O)Nc2ccccc2C(=O)O)cc1O [Ia-001a] ?
5.65

Quick one: pIC50 for O=C(O)c1cc(O)ccc1NC(=O)c1cc(O)cc(C(=O)Nc2ccc(O)cc2C(=O)O)c1O [IIc-009a] ?
5.77

Quick one: pIC50 for O=C(O)c1cc(O)c(CS(=O)(=O)Cc2cc(O)c(C(=O)O)cc2O)cc1O [IIIc-059a] ?
5.44

Quick one: pIC50 for O=C(O)c1cc(NC(=O)c2cc(O)c(C(=O)O)cc2O)cc(C(=O)O)c1 [Ia-015a] ?
6.82

Quick one: pIC50 for O=C(O)c1ccc(NC(=O)c2cc(O)cc(C(=O)O)c2O)cc1 [IIa-003a] ?
5.60

Quick one: pIC50 for CCOC(=O)c1cc(O)c(C(=O)Nc2ccccc2C(=O)OCC)cc1O [Ia-001a-E2] ?
5.90

Quick one: pIC50 for O=C(O)c1ccc(C(=O)O)c(NC(=O)c2cc(O)cc(C(=O)O)c2O)c1 [IIa-012a] ?
5.48

Quick one: pIC50 for O=C(O)c1cc(O)cc(CS(=O)(=O)Cc2cc(O)cc(C(=O)O)c2O)c1O [IVc-059a] ?
5.32

Quick one: pIC50 for O=C(O)c1cc(O)c(CN(Cc2cc(O)c(C(=O)O)cc2O)Cc2cc(O)c(C(=O)O)cc2O)cc1O [IIIc-061a] ?
5.37

Quick one: pIC50 for CCOC(=O)Cc1cc(O)c(C(=O)Nc2cc(C(=O)OCC)cc(C(=O)OCC)c2)cc1O [IIIa-015a-E3] ?
5.14

Quick one: pIC50 for O=C(O)c1cccc(NC(=O)c2cc(O)c(C(=O)O)cc2O)c1 [Ia-002a] ?
5.24

Quick one: pIC50 for `O=C(O)Cc1cc(O)c(C(=O)Nc2ccccc2-c2nnn[nH]2)cc1O` ?
6.15

Quick one: pIC50 for O=C(O)c1cc(O)c(C(=O)Nc2ccc(O)cc2C(=O)O)cc1O [Ia-006a] ?
4.93
